Values were extracted from PubChem BioAssay (NCI).

# Test system: 786-0 renal
# Assay Protocol: NCI-60 one-dose screen, 48 h
# Run Parameters: 10 µM unless noted
The panel holds about 83,000 compounds, 20% with a hit somewhere; the sample as a whole holds those more often. Active and inactive are the calls of the source. The calls were made as follows: active = growth percent below 10; inactive = the rest.
Output constraint: value belongs to active, inactive

Past entries and their recorded results:
*Q* Tell me the assay call for Cn1cc(NC(=O)Nc2cc(C(=O)O)n(C)c2)cc1C(=O)O please.
*A* inactive

*Q* Hi, do you know how C/C(=C\CCc1ccsc1)CC/C=C(\C)CCCN1CCSCC1 came out in this test?
*A* inactive

*Q* What did the test return for N#Cc1c(-c2ccc(F)cc2)n2c(nc1=O)SC(=O)C2=O ?
*A* inactive

Next, consider the following compound.
*Q* What did this assay record as the result for O=[N+]([O-])c1ccc(N=Nc2c(Cl)cc(O)cc2Cl)cc1 ?
*A* active

###

# Tested on: NCI-H23 lung
# Assay Protocol: NCI-60 one-dose screen, 48 h
# Run Parameters: 10 µM unless noted
This is part of a sample that, as a whole, favours compounds with a hit. Of some 83,000 tested, about 20% had one in any assay. Active and inactive are the calls of the source. Rule for the calls: active = growth percent below 10; inactive = the rest.
Classes to choose from: 1.0 for active, 0.0 for inactive

*Q* Hi, sorry to bother you, what did the test record for COc1cccc(N2CCN(c3cccc(C)n3)CC2)c1 ?
*A* 0.0

*Q* Would you mind telling me which call this test gave O=C(c1ccc(Cl)cc1)c1ccc(Cl)cc1 ?
*A* 0.0

Continuing:
*Q* Dear all, I need the recorded test outcome for Cc1cc(-c2ccccc2)cc(C)n1 , thank you.
*A* 0.0

*Q* Short answer needed: outcome of this test for CCOC(=O)c1sc(NC(=O)COc2cccc(/C=C3\Cc4ccc(Cl)cc4C3=O)c2)nc1C ?
*A* 0.0

###

# Test system: RXF 393 renal
# Assay Protocol: NCI-60 one-dose screen, 48 h
# Run Parameters: 10 µM unless noted
About 83,000 compounds went through this panel and 20% of them were active in at least one assay; those are over-represented in the sample as a whole. The source made the active and inactive calls. How the source made its calls: active means growth percent below 10; inactive means the rest.
Use one of these outcomes when replying: Yes = active, No = inactive

Use the examples below as a reference point.
*Q* Assay result, entry O=C(O)CNC(=O)C1(N2C(=O)c3ccccc3C2=O)CCCC1 — outcome?
*A* No

*Q* # fetch the recorded call for CCOC(=O)C1C(=O)NC(C(=O)OCC)(C(=O)OCC)C1CC (centres undefined) here
*A* No

*Q* Record request — test call for CCCCCN(CCCCC)CCCNc1c2c(nc3ccc(Cl)cc13)CCCC2
*A* No

New cases:
*Q* Hi, sorry to bother you, what did the test record for O=C(CNC(=O)c1cccc2ccccc12)Nc1ccccc1Oc1ccc(O)cc1 ?
*A* Yes

*Q* Assay outcome for Cc1ccc(C2=NNC(c3sc(Cl)nc3Cl)C2)cc1 (centres undefined) : what was it?
*A* No

*Q* Tell me the assay call for Cc1onc(-c2ccccc2Cl)c1C(=O)N[C@@H]1C(=O)N2[C@@H]1SC(C)(C)[C@@H]2C(=O)O please.
*A* No

*Q* Hello, I am checking results. What call was entered for COc1ccc(-c2cc(-c3nnc(SCC(=O)Nc4ccc(C(C)=O)cc4)n3-c3ccccc3)c3ccccc3n2)cc1OC ?
*A* No

*Q* Look up the recorded call for C/C(=C\CCc1ccoc1)CC/C=C(\C)CCCNc1ccc(F)cc1 in this test.
*A* No

*Q* Outcome? C[C@H]1c2cccc(O)c2C(O)=C2C(=O)[C@]3(O)C(O)=C(C(N)=O)C(=O)[C@@H](N(C)C)[C@@H]3[C@@H](O)[C@@H]21
*A* No

*Q* Could you please tell me the result logged for COc1cc(/C=C2\SC(N3CCCCC3)=NC2=O)ccc1OCCCCCCOc1ccc(/C=C2\SC(N3CCCCC3)=NC2=O)cc1OC in this assay?
*A* Yes

*Q* What is the recorded call for this molecule in the test? Cc1ccccc1NC(=O)N/C(N)=N/c1nc2ccccc2s1
*A* Yes

*Q* For CCn1cnc(C[C@H](NC(=O)[C@H](CCCCNC(=O)Nc2cc(C(F)(F)F)cc(C(F)(F)F)c2)NC(=O)Nc2cc(C(F)(F)F)cc(C(F)(F)F)c2)C(=O)OC)c1 , what call appears in the results of this test?
*A* Yes

*Q* Record request — test call for COc1ccc(Oc2ccccc2NC(=O)CNC(=O)c2cccc3ccccc23)cc1
*A* No

###

The entries below come with measured growth values attached.
# Tested on: UO-31 renal
# Assay Protocol: NCI-60 one-dose screen, 48 h (100 = growth as untreated, 0 = no growth, -100 = all killed)
# Run Parameters: 10 µM unless noted
# Procedure: Growth inhibition of the UO-31 human tumor cell line is measured as a screen for anti-cancer activity. Cells are grown in 96 well plates and exposed to the test compound for 48 hours. Compounds are tested at a single concentration, which is 10^-5 M for most compounds. The reported endpoint is percent growth (GI% or GIPRCNT), where numbers from 0 - 100% represent growth inhibition, and numbers from -100% - 0 represent cell death. For example, a value of 40 represents 60% growth inhibition. […]
This is part of a sample that, as a whole, favours compounds with a hit. Of some 83,000 tested, about 20% had one in any assay.
Record the value in %, omitting the unit from your answer.

Below: 5 compounds and their reported growth.
*Q* Can you share its growth? I mean this compound: O=C1CNc2cc(Cl)ccc2N1
*A* 81.6

*Q* Would you kindly share the measured growth for COc1ccc2c(c1)c(CC(=O)[Se]C)c(C)n2C(=O)c1ccc(Cl)cc1 ?
*A* 14.7

*Q* Bench note: what growth did Cc1ccc(NC(=O)c2sc3nc4c(cc3c2N)C(=O)CCC4)cc1 show?
*A* 84.8

*Q* Please give the measured growth for this compound: Cc1nn(-c2ccccc2)c2nc(N)c(C3=NCCO3)nc12
*A* 73.5

*Q* // query growth value for entry N#Cc1c(-c2ccccc2)cc(-c2ccccc2)n(CCC(=O)O)c1=O
*A* 63.1

# ---- query compound ----
*Q* What value of measured growth is listed for CCOC(=O)/C=C1/SC(=Nc2ccc(C#N)cc2)N(Cc2ccco2)C1=O ?
*A* 31.6

###

# System: HCT-116 colon
# Assay Protocol: NCI-60 one-dose screen, 48 h
# Run Parameters: 10 µM unless noted
Compounds without any hit were thinned out: in the full panel of roughly 83,000, 20% have a hit. The source made the active and inactive calls. The calls were made as follows: active = growth percent below 10; inactive = the rest.
Give one outcome, nothing more. List: active, inactive

*Q* Per the assay record, what outcome was assigned to O=Cc1ccccc1C(=O)O ?
*A* inactive

*Q* Per the assay record, what outcome was assigned to Cc1ccc(NC(=O)c2sc3nc4c(cc3c2N)C(=O)CCC4)cc1 ?
*A* inactive

*Q* Test call, this molecule: CCSc1nc(-c2cccs2)n2nc(-c3ccco3)cc2n1
*A* inactive

Further cases:
*Q* For N#Cc1c(-c2ccc(F)cc2)n2c(nc1=O)SC(=O)C2=O , what call appears in the results of this test?
*A* inactive

###

# Test system: BT-549 breast
# Assay Protocol: NCI-60 one-dose screen, 48 h
# Run Parameters: 10 µM unless noted
About 83,000 compounds went through this panel and 20% of them were active in at least one assay; those are over-represented in the sample as a whole. Calls of active or inactive are those of the source. Rule for the calls: active = growth percent below 10; inactive = the rest.
Response enum: active, inactive

Use the examples below as a reference point.
*Q* Check the results log: what was the call for C[C@H]1c2cccc(O)c2C(O)=C2C(=O)[C@]3(O)C(O)=C(C(N)=O)C(=O)[C@@H](N(C)C)[C@@H]3[C@@H](O)[C@@H]21 ?
*A* inactive

*Q* Look up the recorded call for CC[C@H]1CN2CCc3cc(OC)c(OC)cc3C2C[C@@H]1CC1NCCc2cc(OC)c(OC)cc21 (stereo partly drawn) in this test.
*A* active

Next up:
*Q* What did the test return for COc1cc(/C=C/C(=O)C(C(=O)/C=C/c2ccc(OC(=O)CCNC34CC5CC(CC(C5)C3)C4)c(OC)c2)C(=O)CCNC23CC4CC(CC(C4)C2)C3)ccc1OC(=O)CCNC12CC3CC(CC(C3)C1)C2 (stereo not drawn) ?
*A* active

###

# Test system: A549/ATCC NSCLC
# Assay Protocol: NCI-60 one-dose screen, 48 h
# Run Parameters: 10 µM unless noted
This is part of a sample that, as a whole, favours compounds with a hit. Of some 83,000 tested, about 20% had one in any assay. Calls of active or inactive are those of the source. Rule for the calls: active = growth percent below 10; inactive = the rest.
Use one of these outcomes when replying: yes (active), no (inactive)

Answered examples (4):
*Q* Which result was noted for this molecule in the test: O=[N+]([O-])c1ccc(NS(=O)(=O)c2ccc(Cl)c(Cl)c2)cc1
*A* no

*Q* Hi, do you know how COC(=O)c1cc2oc(/C=N\NC(=O)c3cc4oc(C)c(C)c4[nH]3)cc2[nH]1 came out in this test?
*A* no

*Q* Hi, do you know how CCn1cnc(C[C@H](NC(=O)[C@H](CCCCNC(=O)Nc2cc(C(F)(F)F)cc(C(F)(F)F)c2)NC(=O)Nc2cc(C(F)(F)F)cc(C(F)(F)F)c2)C(=O)OC)c1 came out in this test?
*A* yes

*Q* Fill in: this test's call for Cc1[nH]ccc2cc3nc4ccccc4c3cc12 is ___
*A* no

---
*Q* Please indicate how the test categorized N[C@H](CS)C(=O)O .
*A* no

*Q* // param item: O=C1C(=O)/C(=C/c2ccccc2)CCCCCC/C1=C/c1ccccc1 ; yields the recorded call
*A* no

*Q* Fill in: this test's call for O=C(/C=C/c1c(-c2ccccc2)[nH]c2ccccc12)S(=O)(=O)c1ccccc1 is ___
*A* no

*Q* Which result was noted for this molecule in the test: COc1ccc2ncccc2c1Cc1c(OC)ccc2ncccc12
*A* no

*Q* Identify the outcome logged in this assay for the molecule shown: O=C1Nc2ccc(C(=O)O)c(O)c2C1=O
*A* no
